- Tested on: HL-60
- experiment notes: NCI tumour cell line growth inhibition, 48 h
Activity calls are given as the source filed them. Rule as the data show it: active = GI50 up to about 1.1 µM and inactive = higher.
Outcome codes: 1 = active, -1 = inactive

molecule=CN(C)NC1=NS(=O)(=O)c2cc3c(cc2S1)N(N(C)C)C(=O)c1cc2c(cc1N(N(C)C)C3=O)SC(NN(C)C)=NS2(=O)=O group_label=-1
molecule="COC(=O)C1=C2CCC(=O)[C@@]2(C)C(OC(C)=O)C=CC1 (stereo not given in full)" group_label=-1
molecule=S=C(NCc1ccccn1)N/N=C/c1ccccn1 group_label=1
molecule="CCCC1CC(=O)NC(=O)C1C(=O)OC(C)(C)C (stereo not given)" group_label=-1
molecule="CC1=C2CC(C)(C)CC(=O)C2(C)CCC1=O (stereo not given)" group_label=-1
molecule=N#C/C(=C1\OC(=N)C(c2ccc(Cl)cc2)=C1O)c1ccc(Cl)cc1 group_label=-1
molecule="CC(=O)O[C@H]1CC[C@@]2(C)C(=CC[C@@H]3C2CC[C@]2(C)C(=O)NC(=O)CC32)C1 (stereo not given in full)" group_label=-1
molecule="COc1ccc(NC2Oc3cc4c(cc3C(c3cccc(OC)c3OC)C2C)OCO4)cc1 (stereo not given)" group_label=-1
molecule="N#CC1Nc2ccccc2[C@@H](O)C1O (stereo not given in full)" group_label=-1
molecule="CCOC(=O)C1(C/C=C/CBr)Cc2ccccc2C1=O (stereo not given)" group_label=-1

---

- Test system: K562
- experiment notes: NCI tumour cell line growth inhibition, 48 h
The source made the active and inactive calls. Cut-off read from the data, not from the text of the source: active = GI50 up to about 1.1 µM and inactive = higher.
Outcome codes: y (active), n (inactive)

compound=Brc1ccc2c(c1)-c1nc3c(cc1CC2)CCc1ccc(Br)cc1-3 group_label=n
compound=Brc1ccc(-c2ccc(-c3ccc(-c4ccc(Br)s4)s3)s2)s1 group_label=n
compound="CCCCN(CCCC)C(=O)C(=O)C(C#N)c1ccc(C)cc1 (stereo unspecified)" group_label=n
compound="COc1ccccc1C1C(C(=O)O)=C(CO)Oc2cc3c(cc21)OCO3 (stereo unspecified)" group_label=n
compound="CC(=O)NC(CCCOC(C)=O)C(=O)NC(CCCOC(C)=O)C(=O)NC(CCCOC(C)=O)C(=O)NC(Cc1ccc([N+](=O)[O-])cc1)C(=O)NCC(=O)OCc1ccccc1 (stereo unspecified)" group_label=n
compound=C=CC[C@H]1C[C@@]2(C)OC[C@H](C(C)C)N2C1=O group_label=n
compound=COc1cc(/C=N/n2c(-c3ccccc3)n[nH]c2=O)cc(OC)c1OC group_label=y
compound="Cc1cc(C)c(N[S+]([O-])c2cccc([N+](=O)[O-])c2)c(C)c1 (stereo unspecified)" group_label=n
compound=COc1ccc(C(=O)c2[nH]c(Nc3ccc(Cl)cc3)c(C(=S)Nc3ccccc3)c2N)cc1 group_label=n
compound=NCCCNC1(c2cc3ccccc3s2)CCCCC1 group_label=n
compound=CCN1C(=O)/C(=C2\SC(c3ccccc3)(c3ccccc3)c3ccccc32)SC1=S group_label=n
compound="CC1(C)CC23C4COC(=O)C2CCC1C3CC4=O (stereo unspecified)" group_label=n
compound=O=C(Nn1c(-c2ccccc2)nc2ccccc2c1=O)c1ccccc1O group_label=n
compound=CCC/C(Cl)=N/OC(=O)Nc1cccc(F)c1 group_label=y
compound="O=C1N2CCc3c([nH]c4ccccc34)C23CC2CCCCC12S3 (stereo unspecified)" group_label=n
compound="COc1ccc2c(c1)C(=O)C1(C2)[C@H](c2ccccc2)C2C(=O)c3cc(OC)ccc3C2[C@H]1c1ccccc1 (stereo partly specified)" group_label=n
compound=CCCCc1ccc(-n2c3nc(=O)n(C)c(=O)c-3nc3ccccc32)cc1 group_label=n
compound=Cn1c(=O)n2n(c1=O)Cc1cccc3cccc(c13)C2 group_label=n
compound=COc1ccc2nc3cc(Cl)ccc3c(NCCCNCc3cc(OC)c(OC)c(OC)c3)c2c1 group_label=y
compound="CC(=O)O[C@H]1CC[C@@]2(C)C(=CC[C@@H]3C2CC[C@]2(C)C(=O)NC(=O)CC32)C1 (stereo partly specified)" group_label=n
compound="C=CCNC1=NC(=O)C(CC(=O)Nc2cccc(Cl)c2)S1 (stereo unspecified)" group_label=n

---

- Test system: NCI-H23
- experiment notes: NCI tumour cell line growth inhibition, 48 h
Activity calls are given as the source filed them. Cut-off read from the data, not from the text of the source: active = GI50 up to about 1.1 µM and inactive = higher.
Outcome codes: Yes = active, No = inactive

compound=Cn1c(=O)c2c(nc(N/N=C3/SCC(=O)N3Cc3ccccc3)n2C)n(C)c1=O group_label=No
compound="CC1CCCCc2nc3c(c(=O)n21)CCCC3 (stereo unspecified)" group_label=No
compound=O=C1Nc2cccc(Cl)c2/C1=C\c1cccnc1 group_label=No
compound="CCCC1CC(=O)NC(=O)C1C(=O)OC(C)(C)C (stereo unspecified)" group_label=No
compound=CCN(CC)CC(C)(C)C(=O)/C=C/c1ccc(C)cc1 group_label=No
compound="CC(=O)NC(CCCOC(C)=O)C(=O)NC(CCCOC(C)=O)C(=O)NC(CCCOC(C)=O)C(=O)NC(Cc1ccc([N+](=O)[O-])cc1)C(=O)NCC(=O)OCc1ccccc1 (stereo unspecified)" group_label=No
compound=COC(=O)c1c(O)ccc2[nH]c3c(O)c4ccccc4cc3c12 group_label=No
compound=C#CCCCC(=C)C[C@@H]1OC(=O)[C@H](C)[C@@H]1O group_label=No
compound="Cc1ccc(S(=O)(=O)N/N=C2/C3CCC(C3)C2c2ccccc2)cc1 (stereo unspecified)" group_label=No
compound=Cc1cc(C(C)(C)C)cc(Cc2cc(C(C)(C)C)cc(Cc3cc(C(C)(C)C)cc(C)c3O)c2O)c1O group_label=No
compound="COC(=O)C(C(=O)C(=O)Nc1ccc([N+](=O)[O-])cc1)c1nc2ccc([N+](=O)[O-])cc2nc1O (stereo unspecified)" group_label=No
compound=O=C(NCCNCCNC(=O)c1cc(-c2ccccc2)nc2ccccc12)c1cc(-c2ccccc2)nc2ccccc12 group_label=No
compound=O=Cc1ccc(-c2ccc(-c3ccc(CO)s3)o2)s1 group_label=No
compound=COc1ccc2nc3cc(Cl)ccc3c(NCCCNCc3cc(OC)c(OC)c(OC)c3)c2c1 group_label=No
compound="Nc1nc2c(ncn2C2OC(CO)C(O)C2O)c(=O)o1 (stereo unspecified)" group_label=No
compound="O=C1c2ccccc2N2OC3(N4CCCC4)CCCC3C12c1ccccc1 (stereo unspecified)" group_label=No
compound=Nc1c2ccccc2nc2ccc(C(=O)Nc3ccc(S(N)(=O)=O)cc3)cc12 group_label=No
compound=Cc1ccc(N/C(SCc2ccccc2)=C(\C(Cl)=C(Cl)Cl)[N+](=O)[O-])c(C)c1 group_label=No
compound="Cc1ccc(C)c(NC(=O)CC/C(=N\\NC(=O)C(N)=O)C(C)C(=O)c2ccc(O)cc2)c1 (stereo unspecified)" group_label=No
compound=COc1ccc2nc3cc(Cl)ccc3c(Sc3ccc([N+](=O)[O-])cc3C)c2c1 group_label=No
compound="COC(=O)/C(C#N)=C1\\CCC(O)N1C (stereo unspecified)" group_label=No
compound=CCCCC/C=C\C=C1\C(=O)C=C[C@@H]1C/C=C\CCCC(=O)O group_label=No
compound=CCOC(=O)c1c(O)cn2c1[nH]c1cccc3cccc2c31 group_label=No
compound="CC1CCC2(CC1)NC1=C(CC(C)CC1)C1=C2CC(C)CC1 (stereo unspecified)" group_label=No
compound="COC1=CC(=O)c2ccccc2C1(CCC=C(C)C)C1=NC(C)(C)CO1 (stereo unspecified)" group_label=No
compound=O=C(Cn1cc(Br)c(=O)[nH]c1=O)c1ccc(-c2ccccc2)cc1 group_label=No
compound=NCCc1ccc2c(c1)C(=O)c1c(O)ccc(O)c1C2=O group_label=No
compound="CCCCCCCCCC[C@@H](O)[C@H]1CC[C@@H]([C@H]2CC[C@H]([C@H](O)CCCCCCCCCC[C@@H]3CC(CC(C)=O)C(=O)O3)O2)O1 (stereo partly specified)" group_label=Yes
compound="CCCOC(=O)CCC(NC(=O)c1ccc(Nc2nc3ccccc3nc2-c2cccs2)cc1)C(=O)OCCC (stereo unspecified)" group_label=No
compound="CC1CN=C(N(C(=O)Nc2ccc(Cl)c(Cl)c2)c2ccccc2)S1 (stereo unspecified)" group_label=No
compound="CC1(c2nc3ccccc3[nH]2)CCC(C(N)=O)C(C)(C)O1 (stereo unspecified)" group_label=No
compound=CCCCC1=CSC(c2ccccc2)=C(c2ccccc2)S1 group_label=No
compound=O=C1C(c2c(O)[nH]c3ccc([N+](=O)[O-])cc23)=Nc2ccccc21 group_label=No
compound="CC(=O)O[C@H]1CC[C@@]2(C)C(=CC[C@@H]3C2CC[C@]2(C)C(=O)NC(=O)CC32)C1 (stereo partly specified)" group_label=No
compound="CN1C(=O)NC2(O)c3ccccc3C(=O)C12O (stereo unspecified)" group_label=No
compound=COc1ccc(NC(=O)NNS(=O)(=O)c2ccc(C)cc2)cc1 group_label=No
compound="NC(=O)CC(/N=C1\\C(=O)OC(C(O)CO)\\C1=N/C(CC(N)=O)C(=O)O)C(=O)O (stereo unspecified)" group_label=No
compound=O=C(O)c1ccc(S(=O)(=O)c2ccccc2[N+](=O)[O-])cc1 group_label=No
compound=Cc1ccccc1N(C)S(=O)(=O)c1ccccc1[N+](=O)[O-] group_label=No
compound=COc1ccc(NC(=O)CC(=O)n2nc(C)c(/N=N/c3ccccc3C(=O)O)c2C)cc1 group_label=No
compound=C[C@H](Nc1nc(N)c(N=O)c(=O)n1C)C(=O)O group_label=No
